test system: KHYG-1 (IL-2 2.5 ng/mL); test: percent inhibition of viability; higher = more inhibition; details: 72 h; 100 nM
QUANTITY MEASURED: percent inhibition of viability (%)
Provide the reading as a plain figure in %.

Example molecules with recorded percent inhibition of viability:
COc1cccc2c1C(=O)c1c(O)c3c(c(O)c1C2=O)C[C@@](O)(/C(CO)=N/NC(=O)CCCCCN1C(=O)C=CC1=O)C[C@@H]3O[C@H]1C[C@H](N)[C@H](O)[C@H](C)O1 [Aldoxorubicin] (max concentration tested 1000 nM): 79.9
Clc1ccc(Nc2nnc(Cc3ccncc3)c3ccccc23)cc1 [Vatalanib] (max concentration tested 10000 nM): 8.34

Please examine the following record next.
Which percent inhibition of viability value is on record for Cc1ccc(C(=O)Nc2ccc(CN3CCN(C)CC3)c(C(F)(F)F)c2)cc1C#Cc1cnc2cccnn12 [Ponatinib] (max concentration tested 1000 nM) ?
3.85

----------
percent inhibition of viability values for the compounds below.
system: YT (IL-2 2.5 ng/mL); assay: percent inhibition of viability; higher = more inhibition; details: 72 h; 1000 nM
Express your answer as a number followed by its unit.

c1ccc(Cn2c(-c3ccc(OC[C@H](C4CCNCC4)n4c(-c5ccccc5)nc5ccccc54)cc3)nc3ccccc32)cc1 [deltarasin] (max concentration tested 10000 nM): 6.64%
CCC(C)(C)C(=O)O[C@H]1C[C@@H](C)C=C2C=C[C@H](C)[C@H](CC[C@@H]3C[C@@H](O)CC(=O)O3)[C@H]21 [Simvastatin] (max concentration tested 10000 nM): 2.62%
CCN(CC)CCNC(=O)c1c(C)[nH]c(/C=C2\C(=O)Nc3ccc(F)cc32)c1C [Sunitinib] (max concentration tested 1000 nM): -1.42%
CC(C)n1cnc2c(NCCc3ccc(O)cc3)nc(-c3csc4ccccc34)nc21 [StemRegenin 1] (max concentration tested 10000 nM): 5.57%

Please examine the following record next.
Which percent inhibition of viability value is on record for O=C(CCCCCCC(=O)Nc1ccccc1)NO [Vorinostat] (max concentration tested 10000 nM) ?
27.2%

----------
tested on: normal primary NK cells, pool 1 (3 donors) (IL-2 2.5 ng/mL); assay: percent inhibition of viability; higher = more inhibition; settings: 72 h; 10000 nM
QUANTITY MEASURED: percent inhibition of viability (%)
Provide the reading as a plain figure in %.

Example compounds with recorded percent inhibition of viability:
CCC1(c2ccc(N)cc2)CCC(=O)NC1=O (configuration not stated) [Aminoglutethimide] (max concentration tested 10000 nM): 1.17
COc1cc([C@@H]2c3cc4c(cc3[C@@H](O[C@@H]3O[C@@H]5CO[C@@H](C)O[C@H]5[C@H](O)[C@H]3O)[C@H]3COC(=O)[C@H]23)OCO4)cc(OC)c1O [Etoposide] (max concentration tested 10000 nM): 79.7

Which percent inhibition of viability value is on record for CC(C)c1c(C(=O)Nc2ccccc2)c(-c2ccccc2)c(-c2ccc(F)cc2)n1CC[C@@H](O)C[C@@H](O)CC(=O)O [Atorvastatin] (max concentration tested 10000 nM) ?
27.1

Which percent inhibition of viability value is on record for COc1nc(N)nc2c1ncn2[C@@H]1O[C@H](CO)[C@@H](O)[C@@H]1O [Nelarabine] (max concentration tested 10000 nM) ?
92.1

Which percent inhibition of viability value is on record for Nc1nc(OCc2cc(Br)cs2)c2[nH]cnc2n1 [Lomeguatrib] (max concentration tested 10000 nM) ?
26.1

Which percent inhibition of viability value is on record for Clc1ccc(Nc2nnc(Cc3ccncc3)c3ccccc23)cc1 [Vatalanib] (max concentration tested 10000 nM) ?
-10.3

Which percent inhibition of viability value is on record for Nc1nc(Nc2ccc3c(c2)CC[C@@H](N2CCCC2)CC3)nn1-c1cc2c(nn1)-c1ccccc1CCC2 [BGB324] (max concentration tested 10000 nM) ?
99.8

Which percent inhibition of viability value is on record for COc1cc(OC)c(/C=C/S(=O)(=O)Cc2ccc(OC)c(NCC(=O)O)c2)c(OC)c1 [Rigosertib] (max concentration tested 10000 nM) ?
45.3

Which percent inhibition of viability value is on record for O=P1(NCCCl)OCCCN1CCCl (configuration not stated) [Ifosfamide] (max concentration tested 10000 nM) ?
1.61

----------
system: KHYG-1 (IL-2 2.5 ng/mL); assay: percent inhibition of viability; higher = more inhibition; details: 72 h; 1 nM
percent inhibition of viability values for the compounds below.
Provide the reading as a plain figure in %.

Example compounds with recorded percent inhibition of viability:
O=C(CCCCCCNC(=O)c1cnc(N(c2ccccc2)c2ccccc2)nc1)NO [Rocilinostat] (max concentration tested 10000 nM): 3.34
CC(C)[C@H](C(=O)Nc1ccc(C(=O)NO)cc1)c1ccccc1 [AR-42] (max concentration tested 10000 nM): -2.7
CNC(=O)c1ccc2cc([C@@]3(O)CCn4cncc43)ccc2c1 [Orteronel] (max concentration tested 10000 nM): -5.73
N#Cc1ccc2[nH]c(O)c(-c3ccc(CN4CCOCC4)cn3)c2c1 [AZD-1080] (max concentration tested 10000 nM): -9.77

Which percent inhibition of viability value is on record for CC(C)Oc1cc(Nc2nc(N[C@@H](C)c3ccc(F)cn3)ncc2Cl)n[nH]1 [AZ-23] (max concentration tested 1000 nM) ?
3.62

Which percent inhibition of viability value is on record for N#CC1(c2ccc(NC(=O)c3cccnc3NCc3ccncc3)cc2)CCCC1 [Apatinib] (max concentration tested 10000 nM) ?
4.44

----------
system: NK-92 (IL-2 2.5 ng/mL); experiment: percent inhibition of viability; higher = more inhibition; settings: 72 h; 10000 nM
QUANTITY MEASURED: percent inhibition of viability (%)
Provide the reading as a plain figure in %.

CC(C)NC[C@@H](C(=O)N1CCN(c2ncnc3c2[C@H](C)C[C@H]3O)CC1)c1ccc(Cl)cc1 [GDC-0068] (max concentration tested 10000 nM): 29
CC1(COc2ccc3c(c2)ncn3-c2ccc3cccc(N4CCC(N)CC4)c3n2)COC1 [Crenolanib] (max concentration tested 10000 nM): 102
CC(C)[C@H](C(=O)Nc1ccc(C(=O)NO)cc1)c1ccccc1 [AR-42] (max concentration tested 10000 nM): 109
N#CCNC(=O)c1ccc(-c2ccnc(Nc3ccc(N4CCOCC4)cc3)n2)cc1 [Momelotinib] (max concentration tested 10000 nM): 73.3
C=C(c1ccc(C(=O)O)cc1)c1cc2c(cc1C)C(C)(C)CCC2(C)C [Bexarotene] (max concentration tested 10000 nM): 32.8
CO[C@@H](C(=O)N1Cc2[nH]nc(NC(=O)c3ccc(N4CCN(C)CC4)cc3)c2C1)c1ccccc1 [Danusertib] (max concentration tested 10000 nM): 64.6
CS(=O)(=O)N1CCN(Cc2cc3nc(-c4cccc5[nH]ncc45)nc(N4CCOCC4)c3s2)CC1 [Pictilisib] (max concentration tested 10000 nM): 73.9
COc1cc(OC)c(/C=C/S(=O)(=O)Cc2ccc(OC)c(NCC(=O)O)c2)c(OC)c1 [Rigosertib] (max concentration tested 10000 nM): 94.3

Which percent inhibition of viability value is on record for Cc1c(CN2CCN(C(=O)[C@H](C)O)CC2)sc2c(N3CCOCC3)nc(-c3cnc(N)nc3)nc12 [Apitolisib] (max concentration tested 10000 nM) ?
57.8

Which percent inhibition of viability value is on record for CNC(=O)c1ccc2cc([C@@]3(O)CCn4cncc43)ccc2c1 [Orteronel] (max concentration tested 10000 nM) ?
-21.7

Which percent inhibition of viability value is on record for O=C(CCCCCCC(=O)Nc1ccc([C@H]2O[C@@H](CSc3nc(-c4ccccc4)c(-c4ccccc4)o3)C[C@@H](c3ccc(CO)cc3)O2)cc1)NO [Tubacin] (max concentration tested 10000 nM) ?
74.3

----------
tested on: IMC-1 (IL-2 20 ng/mL); assay: drug sensitivity score (DSS) (DSS units); higher = more sensitive; extreme values may be limits of the assay; details: 72 h
drug sensitivity score of 0.9 or higher: 1 (yes). Under 0.9: 0 (no).

// below: answered molecules
Clc1ccc(Nc2nnc(Cc3ccncc3)c3ccccc23)cc1 [Vatalanib] (max concentration tested 10000 nM): 1 (yes)
CCn1c(C(=O)N(C2CC2)C2CC2)cc2c3c(ncn3C)c(Nc3cc(C)n(C)n3)nc21 (max concentration tested 10000 nM): 0 (no)
Nc1nc(Nc2ccc3c(c2)CC[C@@H](N2CCCC2)CC3)nn1-c1cc2c(nn1)-c1ccccc1CCC2 [BGB324] (max concentration tested 10000 nM): 1 (yes)

Hi, just wondering whether COC(=O)N[C@@H](C)CNc1nccc(-c2cn(C(C)C)nc2-c2cc(Cl)cc(NS(C)(=O)=O)c2F)n1 [Encorafenib] (max concentration tested 1000 nM) shows drug sensitivity score of 0.9 or higher.
0 (no)

Hi, just wondering whether CC(C)Oc1cc(Nc2nc(N[C@@H](C)c3ccc(F)cn3)ncc2Cl)n[nH]1 [AZ-23] (max concentration tested 1000 nM) shows drug sensitivity score of 0.9 or higher.
0 (no)

Hi, just wondering whether C[C@@H]1C[C@H]2[C@@H]3CCC4=CC(=O)C=C[C@]4(C)[C@@]3(F)[C@@H](O)C[C@]2(C)[C@@]1(O)C(=O)CO [Dexamethasone] (max concentration tested 10000 nM) shows drug sensitivity score of 0.9 or higher.
0 (no)

Hi, just wondering whether C=C(c1ccc(C(=O)O)cc1)c1cc2c(cc1C)C(C)(C)CCC2(C)C [Bexarotene] (max concentration tested 10000 nM) shows drug sensitivity score of 0.9 or higher.
0 (no)

Hi, just wondering whether Cc1ccc(Nc2nccc(N(C)c3ccc4c(C)n(C)nc4c3)n2)cc1S(N)(=O)=O [Pazopanib] (max concentration tested 10000 nM) shows drug sensitivity score of 0.9 or higher.
1 (yes)

Hi, just wondering whether C=CCN(/C=C1/C(=O)O[C@H](COC)[C@@]2(C)C1=C(O)C(=O)C1=C2[C@H](OC(C)=O)C[C@]2(C)C(=O)CC[C@@H]12)CC=C [Sonolisib] (max concentration tested 10000 nM) shows drug sensitivity score of 0.9 or higher.
0 (no)

Hi, just wondering whether C[C@@H]1CN(CC(=O)Nc2ccc3c(c2)Cc2cccc(-c4cc(=O)cc(N5CCOCC5)o4)c2S3)C[C@H](C)O1 (max concentration tested 25000 nM) shows drug sensitivity score of 0.9 or higher.
1 (yes)

Hi, just wondering whether CC(C)Cn1cnc2c(N)nc3ccccc3c21 [Imiquimod] (max concentration tested 2500 nM) shows drug sensitivity score of 0.9 or higher.
1 (yes)

Hi, just wondering whether CN(C)C(=N)NC(=N)N [Metformin] (max concentration tested 100000 nM) shows drug sensitivity score of 0.9 or higher.
0 (no)

Hi, just wondering whether O=c1sn(-c2cccc3ccccc23)c(=O)n1Cc1ccccc1 [Tideglusib] (max concentration tested 3000 nM) shows drug sensitivity score of 0.9 or higher.
0 (no)

Hi, just wondering whether COc1nc(N)nc2c1ncn2[C@@H]1O[C@H](CO)[C@@H](O)[C@@H]1O [Nelarabine] (max concentration tested 10000 nM) shows drug sensitivity score of 0.9 or higher.
0 (no)

Hi, just wondering whether O=C(O)CC[C@H]1CC[C@@](c2cc(F)ccc2F)(S(=O)(=O)c2ccc(Cl)cc2)CC1 [MK-0752] (max concentration tested 1000 nM) shows drug sensitivity score of 0.9 or higher.
0 (no)

Hi, just wondering whether CN[C@@H](C)C(=O)N[C@H](C(=O)N1CCC[C@H]1c1nc(C(=O)c2ccc(F)cc2)cs1)C1CCCCC1 [LCL161] (max concentration tested 25000 nM) shows drug sensitivity score of 0.9 or higher.
1 (yes)

Hi, just wondering whether CCc1cnn2c(NCc3ccc[n+]([O-])c3)cc(N3CCCC[C@H]3CCO)nc12 [Dinaciclib] (max concentration tested 1000 nM) shows drug sensitivity score of 0.9 or higher.
1 (yes)

Hi, just wondering whether COC[C@H](NC(=O)c1cnc(C)s1)C(=O)N[C@@H](COC)C(=O)N[C@@H](Cc1ccccc1)C(=O)[C@@]1(C)CO1 [Oprozomib] (max concentration tested 2500 nM) shows drug sensitivity score of 0.9 or higher.
1 (yes)

Hi, just wondering whether NC(=O)NO [Hydroxyurea] (max concentration tested 100000 nM) shows drug sensitivity score of 0.9 or higher.
0 (no)

Hi, just wondering whether COc1cc(CCc2cc(NC(=O)c3ccc(N4CC(C)NC(C)C4)cc3)n[nH]2)cc(OC)c1 (centres undefined) [AZD4547] (max concentration tested 1000 nM) shows drug sensitivity score of 0.9 or higher.
0 (no)

Hi, just wondering whether CC(C)c1c(C(=O)Nc2ccccc2)c(-c2ccccc2)c(-c2ccc(F)cc2)n1CC[C@@H](O)C[C@@H](O)CC(=O)O [Atorvastatin] (max concentration tested 10000 nM) shows drug sensitivity score of 0.9 or higher.
1 (yes)

Hi, just wondering whether Cc1cc([C@@H](C)Nc2ccccc2C(=O)O)c2nc(N3CCOCC3)cc(=O)n2c1 [AZD-6482] (max concentration tested 2500 nM) shows drug sensitivity score of 0.9 or higher.
0 (no)

Hi, just wondering whether CC1(C)NC(=O)N(c2ccc([N+](=O)[O-])c(C(F)(F)F)c2)C1=O [Nilutamide] (max concentration tested 10000 nM) shows drug sensitivity score of 0.9 or higher.
1 (yes)
